Test system: SK-MEL-5 melanoma
Test: NCI tumour cell line growth inhibition, 48 h
metric name: GI50

Illustrative cases are given below, each with its answer.
{"molecule": "C=C(C)C(C1C=C(CCC(C=O)=C(C)C)C(=O)O1)C1(OC)C=C(C)C(=O)O1 (stereo not drawn)", "metric name": "GI50", "recorded value": "71400 nM"}
{"molecule": "COc1ccc(-c2cc(=O)oc3c4c(ccc23)OCN(Cc2ccc(F)cc2)C4)cc1", "metric name": "GI50", "recorded value": "12700 nM"}
{"molecule": "CO[C@@H]1CC[C@]2(C)OC[C@H](C)[C@@H]3C[C@@H](C)[C@@H](OC(C)=O)[C@@H]4[C@H]3[C@@H]2O[C@H]4C[C@@]1(C)O", "metric name": "GI50", "recorded value": "> 100000 nM"}
{"molecule": "CCCCCCn1c(-c2ccc(C(=O)O/N=C(\\N)c3ccc4c(c3)OCO4)cc2)nc(-c2ccccc2)c1-c1ccccc1", "metric name": "GI50", "recorded value": "2220 nM"}
{"molecule": "COc1cccc2c1O/C(=C\\c1ccc([N+](=O)[O-])s1)C2=O", "metric name": "GI50", "recorded value": "2490 nM"}

Entry `COc1ccc(Cl)cc1NC(=O)c1ccc(NC2=C(Cl)C(=O)N(Cc3ccccc3)C2=O)cc1` has what GI50?
47400 nM

Entry `COC(=O)c1c2c(c(C)[n+]([O-])c1C)C(=O)C(NCc1ccc(Br)cc1)=CC2=O` has what GI50?
867 nM

Entry `C=C(C)[C@@H]1CC[C@]2(CN)CC[C@]3(C)[C@H](CC[C@@H]4[C@@]5(C)CCCNC(C)(C)[C@@H]5CC[C@]43C)[C@@H]12` has what GI50?
1560 nM
